- Tested Target: 5-hydroxytryptamine receptor 1A (Rattus norvegicus)
- Protocol Notes: In vitro inhibition of [3H]-8-hydroxy-2-(di-n-propylamino)tetralin binding to 5-hydroxytryptamine 1A receptor from rat hippocampal tissue at 1 uM
- Experimental Context: Hippocampus
Lab note: compare inhibition against 50%. Equal or greater, write Met. Smaller, write Not met.

Some entries whose results are on file:
Prompt: Check if inhibition >= 50% (inclusive). Item: Cl.O=C1C2C3C=CC(CCC3)C2C(=O)N1CCCCc1ccncc1 (stereo not drawn)
Completion: Not met

Prompt: Check if inhibition >= 50% (inclusive). Item: Cl.O=C1C2C3C=CC(C4C=CC43)C2C(=O)N1CCCCN1CCN(c2cnccn2)CC1 (stereo not drawn)
Completion: Not met

Prompt: Check if inhibition >= 50% (inclusive). Item: Cl.O=C1C2C3C=CC(C4CC34)C2C(=O)N1CCCCc1ccncc1 (stereo not drawn)
Completion: Not met

Prompt: Check if inhibition >= 50% (inclusive). Item: O=C1C2C3CS(=O)(=O)CC3C2C(=O)N1CCCCN1CCN(c2nccnc2Cl)CC1 (stereo not drawn)
Completion: Not met

Prompt: Check if inhibition >= 50% (inclusive). Item: O=C1C2C3C=CC(C4CC34)C2C(=O)N1CCCCC1CCN(c2cncc(Cl)n2)CC1 (stereo not drawn)
Completion: Not met

Prompt: Check if inhibition >= 50% (inclusive). Item: O=C1C2C3CS(=O)(=O)CC3C2C(=O)N1CCCCN1CCN(c2cncc(Cl)n2)CC1 (stereo not drawn)
Completion: Not met

Prompt: Check if inhibition >= 50% (inclusive). Item: Cl.O=C1C2C3C=CC(C4CC34)C2C(=O)N1CCCCN1CCN(c2ccc(C(F)(F)F)cn2)CC1 (stereo not drawn)
Completion: Met

***
Prompt: Check if inhibition >= 50% (inclusive). Item: O=C1C2C3C=CC(C3)C2C(=O)N1CCCCN1CCN(c2cncc(Cl)n2)CC1 (stereo not drawn)
Completion: Met

----------
- Tested Target: D(2) dopamine receptor (Rattus norvegicus, UniProt P61169)
- Sequence (P61169 whole entry): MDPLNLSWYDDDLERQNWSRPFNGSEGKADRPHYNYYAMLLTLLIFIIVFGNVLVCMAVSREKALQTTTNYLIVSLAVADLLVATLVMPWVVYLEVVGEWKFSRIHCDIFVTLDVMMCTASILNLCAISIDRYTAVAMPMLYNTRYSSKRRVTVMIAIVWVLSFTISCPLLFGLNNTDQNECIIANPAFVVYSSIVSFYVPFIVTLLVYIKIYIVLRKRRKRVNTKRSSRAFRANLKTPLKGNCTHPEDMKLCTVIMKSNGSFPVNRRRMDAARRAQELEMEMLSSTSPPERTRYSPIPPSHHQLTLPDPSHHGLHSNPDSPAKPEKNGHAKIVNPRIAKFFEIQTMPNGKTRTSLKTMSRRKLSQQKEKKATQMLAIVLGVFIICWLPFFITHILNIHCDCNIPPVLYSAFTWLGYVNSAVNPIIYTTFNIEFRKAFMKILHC
- Protocol Notes: In vitro inhibition of [3H]spiperone binding to Dopamine receptor D2 from rat brain limbic tissue
Measure: pKi
Note on pKi: it is the negative log10 of concentration, concentration in mol/L.

Field: example entries. Status: answers known.
Prompt: pKi lookup needed for O=C1C2C3C=CC(C4CCC34)C2C(=O)N1CCCCN1CCN(c2ccc(Cl)nn2)CC1 (stereo not drawn) , thanks.
Completion: 5.72

Prompt: pKi lookup needed for Cl.O=C1C2C3C=CC(C4CC34)C2C(=O)N1CCCCN1CCN(c2ncccn2)CC1 (stereo not drawn) , thanks.
Completion: 6.31

Prompt: pKi lookup needed for O=C1C2C3C=CC(C3)C2C(=O)N1CCCCN1CCN(c2ncccn2)CC1 (stereo not drawn) , thanks.
Completion: 6.61

Prompt: pKi lookup needed for COc1ccccc1N1CCN(CCCCN2C(=O)C3C4C=CC(C5CC45)C3C2=O)CC1.Cl (stereo not drawn) , thanks.
Completion: 7.80

Prompt: pKi lookup needed for CC(C)=C1C2C=CC1C1C(=O)N(CCCCN3CCN(c4cncc(Cl)n4)CC3)C(=O)C21 (stereo not drawn) , thanks.
Completion: 6.01

Prompt: pKi lookup needed for O=C1C2C3C=CC(C4CC34)C2C(=O)N1CCCCN1CCN(c2ccc(Cl)nn2)CC1 (stereo not drawn) , thanks.
Completion: 5.63

Prompt: pKi lookup needed for Cl.O=C1C2C3CCC(C4CCC43)C2C(=O)N1CCCCN1CCN(c2ncccn2)CC1 (stereo not drawn) , thanks.
Completion: 7.28

Okay, now this compound:
Prompt: pKi lookup needed for O=C1C2CCCCC2C(=O)N1CCCCN1CCN(c2ncccn2)CC1 (stereo not drawn) , thanks.
Completion: 6.43
